List of pest or weed control at 140 g/ha values.
Test system: test plant species
Assay: Post-emergent herbicidal activity test (greenhouse, foliar spray, visual growth reduction)
Format: in vivo
Conditions: post-emergence, 336 h, DIGSA: crabgrass (Digitaria sanguinalis), 140 g ai/ha, 14 days after application, read-out: Visual Growth Reduction (%) 14 Days After Application, DIGSA
Property Name: pest or weed control at 140 g/ha

COC(=O)c1cc(Cl)cc(-c2ccc(C(F)(F)F)cc2Cl)n1    0 to 29%
COC(=O)c1nc(-c2c(Cl)cc(C(F)(F)F)cc2SC)ccc1Cl    30 to 44%
COCC(F)(F)c1ccc(-c2ccc(Cl)c(C(=O)O)n2)c(Cl)c1    0 to 29%
COC(=O)c1nc(-c2ccc(OC(F)(F)F)cc2)c(F)cc1Cl    75 to 84%
COC(=O)c1nc(-c2ccc(C(F)(F)F)c(SC)c2Cl)ccc1Cl    0 to 29%

* * *

System: test plant species
Test: Post-emergent herbicidal activity test (greenhouse, foliar spray, visual growth reduction)
Type: in vivo
Conditions: post-emergence, 336 h, ECHCG: barnyardgrass (Echinochloa crus-galli), 140 g ai/ha, 14 days after application, read-out: Visual Growth Reduction (%) 14 Days After Application, ECHCG
Property Name: pest or weed control at 140 g/ha

COC(=O)c1nc(-c2ccc(C)cc2)c(F)cc1Cl    0 to 29%
COC(=O)c1nc(-c2ccc3ccsc3c2F)ccc1Cl    0 to 29%
COC(=O)c1nc(-c2cc(F)c(C(F)(F)F)cc2OC)c(F)cc1Cl    95 to 100%
COC(=O)c1nc(-c2cc3c(cc2OC)OC(F)(F)O3)c(F)cc1Cl    30 to 44%
Cc1cc(C(F)(F)F)ccc1-c1nc(C(=O)O)c(Cl)cc1F    75 to 84%
COc1cc(-c2nc(C(=O)O)c(Cl)cc2F)c(Cl)cc1C(F)(F)F    60 to 74%
COC(=O)c1nc(-c2cc3c(cc2F)OC(F)(F)O3)c(F)cc1Cl    85 to 94%
COC(=O)c1nc(-c2ccc3[nH]ccc3c2)c(F)cc1Cl    0 to 29%
COC(=O)c1nc(-c2ccc(C(F)(F)F)c([S+](C)[O-])c2Cl)ccc1Cl (stereo not shown)    0 to 29%
COC(=O)c1nc(-c2ccc(C(F)(F)F)c(OC)c2)ccc1Cl    0 to 29%

* * *

Test system: test plant species
Assay: Post-emergent herbicidal activity test (greenhouse, foliar spray, visual growth reduction)
Format: in vivo
Details: post-emergence, 336 h, SETFA: giant foxtail (Setaria faberi), 140 g ai/ha, 14 days after application, read-out: Visual Growth Reduction (%) 14 Days After Application, SETFA
Property Name: pest or weed control at 140 g/ha

COC(=O)c1nc(-c2ccc(OC(F)F)cc2Cl)c(F)cc1Cl [F200]    85 to 94%
COC(=O)c1nc(-c2ccc(C(F)(F)F)cc2Br)c(F)cc1F [F374]    85 to 94%
COC(=O)c1nc(-c2ccccc2)c(F)cc1Cl [F219]    0 to 29%
COc1nc(C(F)(F)F)ccc1-c1nc(C(=O)O)c(Cl)cc1F [F347]    85 to 94%
COC(=O)c1nc(-c2cc(OC)c(C(F)(F)F)cc2Cl)c(F)cc1Cl [F331]    0 to 29%
COC(=O)c1nc(-c2ccc3ncoc3c2)ccc1Cl [F262]    0 to 29%
COC(=O)c1nc(-c2ccc(C#N)cc2F)c(F)cc1Cl [F378]    60 to 74%
COC(=O)c1nc(-c2cc(C)c(C(F)(F)F)cc2F)c(F)cc1Cl [F360]    0 to 29%
COC(=O)c1nc(-c2cc3c(cc2Cl)OC(F)(F)O3)c(Cl)cc1Cl [F154]    45 to 59%
COC(=O)c1nc(-c2ccc3cc[nH]c3c2)c(F)cc1Cl [F320]    0 to 29%
COC(=O)c1nc(-c2ccc(C(F)(F)F)cc2Cl)c(F)cc1Cl [F107]    45 to 59%
COC(=O)c1nc(-c2ccc(F)cc2Cl)ccc1Cl [F37]    0 to 29%
COC(=O)c1cc2c(c(-c3ccc(Cl)c(C(=O)OC)n3)c1)OC(F)(F)O2 [F245]    0 to 29%
COC(=O)c1nc(-c2ccc(C(F)(F)F)cc2Br)ccc1Cl [F30]    45 to 59%
COC(=O)c1nc(-c2cc(F)c(C(F)(F)F)cc2Cl)c(Cl)cc1Cl [F246]    75 to 84%
N#Cc1cc(C(F)(F)F)cc(Cl)c1-c1ccc(Cl)c(C(=O)O)n1 [F162]    85 to 94%
COC(=O)c1nc(-c2ccc(C)cc2Cl)ccc1Cl [F60]    0 to 29%
COC(=O)c1nc(-c2cc3c(cc2Cl)OCO3)c(Cl)cc1Cl [F155]    0 to 29%
COC(=O)c1nc(-c2cc3c(cc2F)OC(F)(F)O3)ccc1Cl [F172]    45 to 59%
O=C(O)c1nc(-c2ccc(C(F)(F)F)cc2Cl)ccc1[N+](=O)[O-] [F252]    0 to 29%
COC(=O)c1nc(-c2ccc(C(F)(F)F)c3ccoc23)c(F)cc1Cl [F297]    60 to 74%

* * *

Documented pest or weed control at 140 g/ha across a set of compounds
Tested on: test plant species
Test: Post-emergent herbicidal activity test (greenhouse, foliar spray, visual growth reduction)
Type: in vivo
Conditions: post-emergence, 336 h, ALOMY: blackgrass (Alopecurus myosuroides), 140 g ai/ha, 14 days after application, read-out: Visual Growth Reduction (%) 14 Days After Application, ALOMY
Description: Post-emergent Test: Seeds or nutlets of the desired test plant species were planted in Sun Gro Metro-Mix® 360 planting mixture, which typically has a pH of 6.0 to 6.8 and an organic matter content of about 30 percent, in plastic pots with a surface area of 64 square centimeters. In some aspects, to ensure good germination and healthy plants, a fungicide treatment and/or other chemical or physical treatment was applied. […]
Property Name: pest or weed control at 140 g/ha

O=C(OCc1ccc(Cl)cc1Cl)c1nc(-c2ccc(C(F)(F)F)cc2Cl)ccc1Cl    30 to 44%
O=C(O)c1nc(-c2ccnc(Cl)c2Cl)ccc1Cl    0 to 29%
O=C(O)c1nc(-c2ccc(C(F)(F)F)nc2)ccc1Cl    0 to 29%
COC(=O)c1nc(-c2ccc(F)cc2Cl)ccc1Cl    0 to 29%
COC(=O)c1nc(-c2ccc(C(F)(F)F)cc2C(N)=O)ccc1Cl    0 to 29%
COC(=O)c1cc(Cl)cc(-c2ccc(C(F)(F)F)cc2Cl)n1    0 to 29%
O=C(O)c1nc(-c2cc(Br)c(C(F)(F)F)cc2Cl)c(F)cc1Cl    30 to 44%
COC(=O)c1nc(-c2ccc(SC(F)(F)F)cc2)ccc1Cl    0 to 29%
COC(=O)c1nc(-c2ccc(C(F)(F)F)cc2Cl)ccc1C(F)(F)F    0 to 29%
COC(=O)c1nc(-c2ccc(Cl)c(N(C)C)c2)ccc1Cl    0 to 29%

* * *

Listing of recorded pest or weed control at 140 g/ha by entry.
Tested on: test plant species
Assay: Post-emergent herbicidal activity test (greenhouse, foliar spray, visual growth reduction)
Assay type: in vivo
Details: post-emergence, 336 h, DIGSA: crabgrass (Digitaria sanguinalis), 140 g ai/ha, 14 days after application, read-out: Visual Growth Reduction (%) 14 Days After Application, DIGSA
Property Name: pest or weed control at 140 g/ha

COC(=O)c1nc(-c2ccc3occc3c2)c(F)cc1Cl    30 to 44%
CO/N=C/c1ccc(-c2ccc(Cl)c(C(=O)OC)n2)c(Cl)c1    0 to 29%
COC(=O)c1nc(-c2ccc(OCC(F)(F)F)cc2)c(F)cc1Cl    0 to 29%
COC(=O)c1nc(-c2ccc(Cl)c(C)c2Cl)ccc1Cl    0 to 29%
COC(=O)c1nc(-c2ccc(C(F)(F)F)c(S(C)(=O)=O)c2Cl)ccc1Cl    0 to 29%
COC(=O)c1nc(-c2ccc(/C=N/N(C)C)cc2Cl)ccc1Cl    0 to 29%
COc1ncc(Cl)cc1-c1ccc(Cl)c(C(=O)O)n1    0 to 29%
COC(=O)c1nc(-c2ccc(C(F)(F)F)cc2)c(Cl)cc1Cl    45 to 59%
COC(=O)c1nc(-c2ccc(C(F)(F)F)c(C)c2Cl)ccc1Cl    60 to 74%
COC(=O)c1nc(-c2ccc(SC(F)(F)F)cc2Cl)c(Cl)cc1Cl    60 to 74%

* * *

Test system: test plant species
Assay: Post-emergent herbicidal activity test (greenhouse, foliar spray, visual growth reduction)
Assay type: in vivo
Settings: post-emergence, 336 h, ALOMY: blackgrass (Alopecurus myosuroides), 140 g ai/ha, 14 days after application, read-out: Visual Growth Reduction (%) 14 Days After Application, ALOMY
Each entry below carries its recorded pest or weed control at 140 g/ha.
Property Name: pest or weed control at 140 g/ha

COC(=O)c1nc(-c2ccc(Cl)c3c2OC(F)(F)O3)ccc1Cl [F68]    0 to 29%
COC(=O)c1nc(-c2cc3c(cc2F)OC(F)(F)O3)c(Cl)cc1Cl [F174]    0 to 29%
COC(=O)c1nc(-c2ccc(C(F)(F)F)cc2C)ccc1Cl [F29]    0 to 29%
COC(=O)c1nc(-c2ccc(C(F)(F)F)cc2Cl)c(O)cc1Cl [F34]    0 to 29%
COC(=O)c1nc(-c2ccc(C3CC3)cc2Cl)ccc1Cl [F15]    0 to 29%
COC(=O)c1nc(-c2ccc(C(F)(F)F)cc2Cl)c(F)c(Cl)c1Cl [F43]    0 to 29%
COC(=O)c1nc(-c2cnc(C(F)(F)F)cc2Cl)ccc1Cl [F194]    0 to 29%
COC(=O)c1nc(-c2ccc(C#N)cc2Cl)c(F)cc1Cl [F186]    0 to 29%
COC(=O)c1nc(-c2ccc(Cl)c(C)c2Cl)ccc1Cl [F48]    0 to 29%
COC(=O)c1nc(-c2cc(OC)c(Cl)cc2Cl)ccc1Cl [F47]    0 to 29%

The reported numbers originate from patent US20230017045A1.
